- ASSAYED_SYSTEM: Fe(II) Vc H-NOX
- PROTOCOL: Stopped-flow kinetics and affinity of gaseous ligand binding to Fe
- PROTOCOL_CONDITIONS: Fe(II) Vc H-NOX; calculated from kon and koff; NO: 6c complex
OUTCOME_MEASURE: pKd
Numbers only, as −log10 of the molar value.

Name the recorded pKd of [C-]#[O+] [CO, Carbon monoxide] , assay system Fe(II) Vc H-NOX. 6.11

---

- ASSAYED_SYSTEM: UniProt Q9KLM3
OUTCOME_MEASURE: Kd

// fetch Kd given entry c1c[nH]cn1 [Im, imidazole] 4.2 mM
